Biological target: EtfAB; EtfaB (EtfAB from which α-FAD was removed) (Acidaminococcus fermentans, UniProt D2RIQ2+D2RIQ3)
Construct: recombinant from pET-11a by autoinduction; AB heterodimer, 66 kDa; EtfAB holds α-FAD and β-FAD; EtfaB made by removing FAD from the A-subunit (phenyl Sepharose, KBr); with Electron transfer flavoprotein subunit alpha
Sequence (D2RIQ2 1-263): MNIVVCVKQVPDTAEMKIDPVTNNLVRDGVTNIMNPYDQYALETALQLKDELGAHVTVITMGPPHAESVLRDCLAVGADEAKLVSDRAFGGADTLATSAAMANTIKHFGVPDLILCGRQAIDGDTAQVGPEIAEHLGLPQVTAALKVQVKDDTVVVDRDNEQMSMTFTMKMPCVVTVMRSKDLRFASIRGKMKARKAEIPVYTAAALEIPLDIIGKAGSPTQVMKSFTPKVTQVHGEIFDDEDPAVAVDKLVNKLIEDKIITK
Sequence (D2RIQ3 1-340): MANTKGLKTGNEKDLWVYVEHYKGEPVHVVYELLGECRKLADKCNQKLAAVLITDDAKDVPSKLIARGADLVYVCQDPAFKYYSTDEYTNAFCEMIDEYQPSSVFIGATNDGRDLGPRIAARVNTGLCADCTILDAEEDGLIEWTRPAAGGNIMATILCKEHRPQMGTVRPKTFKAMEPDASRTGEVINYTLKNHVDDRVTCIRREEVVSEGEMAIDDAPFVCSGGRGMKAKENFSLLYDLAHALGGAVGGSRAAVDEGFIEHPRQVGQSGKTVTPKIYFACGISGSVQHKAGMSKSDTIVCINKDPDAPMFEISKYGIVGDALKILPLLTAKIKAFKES
Experiment: anaerobic stopped-flow, kobs at […] nm versus [NADH]
Details: EtfaB form (β-FAD only, α-FAD removed), slow-reacting minor population (~16%); 50 mM potassium phosphate pH 7.0, 4 °C; site at β-FAD
recorded endpoint: Kd (mM)

>>> reading("NC(=O)C1=CN([C@@H]2O[C@H](COP(=O)(O)OP(=O)(O)OC[C@H]3O[C@@H](n4cnc5c(N)ncnc54)[C@H](O)[C@@H]3O)[C@@H](O)[C@H]2O)C=CC1")
3.8
